Assay System: MMP-13 (Homo sapiens, UniProt P45452)
Construct: made in house; host or cells: baculovirus / insect cells
Protocol Notes: In vitro MMP inhibition, Ki determination (fluorogenic substrate II)
Assay type: biochemical
Condition Info: value not in parenthesis; read-out: MMP-13 Ki
pKi: −log10 of the molar value.
Parameter threshold = 9. Response is yes when pKi meets or exceeds it, else no.

1) CCCCOc1ccc(N2CCN(S(=O)(=O)C3(C(=O)NO)CC3)CC2)cc1
no
2) CCCCOc1ccc(N2CCN(S(=O)(=O)C3(C(=O)NO)CCN(C(=O)OCCF)CC3)CC2)cc1
yes
3) CCCCOc1ccc(N2CCN(S(=O)(=O)C3(C(=O)NO)CCN(C(=O)c4cc5ccccc5o4)CC3)CC2)cc1
no
4) CCCCOc1ccc(N2CCN(S(=O)(=O)C3(C(=O)NO)CCN(C(=O)OCCOC)CC3)CC2)cc1
yes

* * *

Assay System: MMP-9 (Homo sapiens, UniProt P14780)
Construct: made in house; host or cells: MMP-9-transfected HT1080 cells (spent media)
Sequence (P14780 107-707 limits assumed): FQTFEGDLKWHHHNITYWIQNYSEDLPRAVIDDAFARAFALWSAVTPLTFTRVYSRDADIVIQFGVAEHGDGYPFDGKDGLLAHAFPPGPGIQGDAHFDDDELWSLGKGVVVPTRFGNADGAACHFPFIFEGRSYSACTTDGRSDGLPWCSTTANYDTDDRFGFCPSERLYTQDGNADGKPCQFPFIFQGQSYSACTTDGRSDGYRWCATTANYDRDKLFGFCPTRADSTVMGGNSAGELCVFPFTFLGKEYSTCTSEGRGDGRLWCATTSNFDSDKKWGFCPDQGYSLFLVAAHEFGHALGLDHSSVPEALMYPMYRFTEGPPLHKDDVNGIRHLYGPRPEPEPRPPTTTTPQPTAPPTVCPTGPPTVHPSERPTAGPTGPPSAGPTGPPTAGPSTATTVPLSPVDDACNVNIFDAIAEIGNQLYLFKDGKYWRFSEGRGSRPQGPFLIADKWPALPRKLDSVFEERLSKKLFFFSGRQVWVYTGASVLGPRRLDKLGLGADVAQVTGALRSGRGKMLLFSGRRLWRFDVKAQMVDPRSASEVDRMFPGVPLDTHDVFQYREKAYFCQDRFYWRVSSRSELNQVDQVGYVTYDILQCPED
Protocol Notes: In vitro MMP inhibition, Ki determination (fluorogenic substrate II)
Type: biochemical
Condition Info: value outside parentheses
pKi: −log10 of the molar value.
Measured Property: pKi

1) Cc1cccc(-c2cnc(N3CCN(S(=O)(=O)C4(C(=O)NO)CCOCC4)CC3)s2)c1 [Example 370]
8.04
2) O=C(NO)C1(S(=O)(=O)N2CCC(COCc3ccccc3)CC2)CCOCC1 [Example 373]
8.12
3) O=C(NO)C1(S(=O)(=O)N2CCC(c3ccc(N4CCCC4)cn3)CC2)CCOCC1 [Example 408]
7.99

* * *

Assay System: MMP-2 (Homo sapiens)
Construct: made in house; host or cells: MMP-2-transfected p2AHT2 cells
Sequence (P08253 110-660, species assumed): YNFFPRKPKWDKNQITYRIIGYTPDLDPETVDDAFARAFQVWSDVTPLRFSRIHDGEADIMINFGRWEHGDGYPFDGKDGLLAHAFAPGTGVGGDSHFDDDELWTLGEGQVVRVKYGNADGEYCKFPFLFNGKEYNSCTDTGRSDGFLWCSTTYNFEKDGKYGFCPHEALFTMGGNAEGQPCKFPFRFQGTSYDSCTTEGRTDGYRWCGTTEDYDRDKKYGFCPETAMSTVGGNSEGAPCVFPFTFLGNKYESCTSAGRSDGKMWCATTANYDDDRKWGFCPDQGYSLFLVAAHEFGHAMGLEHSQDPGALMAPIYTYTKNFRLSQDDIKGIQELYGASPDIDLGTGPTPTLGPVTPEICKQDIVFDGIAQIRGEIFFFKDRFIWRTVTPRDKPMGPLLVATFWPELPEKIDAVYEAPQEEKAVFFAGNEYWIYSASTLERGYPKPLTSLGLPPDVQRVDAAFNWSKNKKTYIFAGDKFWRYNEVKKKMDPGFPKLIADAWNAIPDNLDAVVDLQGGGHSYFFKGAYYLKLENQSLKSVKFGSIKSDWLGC
Protocol Notes: MMP-2 inhibition (in vitro Ki)
Type: biochemical
Condition Info: Table 9; read-out: MMP-2 Ki (IC-50)
pKi: −log10 of the molar value.
Listed below: pKi values for each entry.
Measured Property: pKi

1) O=C(NO)C1(S(=O)(=O)N2CCC(c3ccc(CCc4cccs4)cn3)CC2)CCOCC1
8.89
2) O=C(NO)C1(S(=O)(=O)N2CCC(c3ccc(CCC(F)(F)C(F)(F)F)cn3)CC2)Cc2ccccc2C1
8.89
3) O=C(NO)C1(S(=O)(=O)N2CCC(c3ccc(OCC4CC4)cn3)CC2)CCOCC1
8.88
4) O=C(CCCCC1CCN(S(=O)(=O)C2(C(=O)NO)CCOCC2)CC1)N1Cc2ccccc2C1
7.76
5) Cn1cc(-c2ccc(C3CCN(S(=O)(=O)C4(C(=O)NO)CCOCC4)CC3)nc2)cn1
8.37
6) CN(CC1CCCCC1)C(=O)CCCCC1CCN(S(=O)(=O)C2(C(=O)NO)CCOCC2)CC1
6.72
7) O=C(NO)C1(S(=O)(=O)N2CCC(c3ccc(CCC(F)(F)F)cn3)CC2)CCCC1
9.28
8) CN(Cc1ccco1)C(=O)CCCC1CCN(S(=O)(=O)C2(C(=O)NO)CCOCC2)CC1
6.66
9) CC(=O)OCCCC#Cc1ccc(C2CCN(S(=O)(=O)C3(C(=O)NO)CCOCC3)CC2)nc1
9.51
10) C/C(COc1ccc(C2CCN(S(=O)(=O)C3(C(=O)NO)CCOCC3)CC2)nc1)=N/O
8.46
11) O=C(NO)C1(S(=O)(=O)N2CCN(c3nnn(Cc4ccccc4)n3)CC2)CCOCC1
9.42
12) O=C(/C=C/C=C/C1CCN(S(=O)(=O)C2(C(=O)NO)CCOCC2)CC1)N1CCCCC1
6.76
13) O=C(NO)C1(S(=O)(=O)N2CCC(OCCCn3nnc(-c4ccc(OC(F)(F)F)cc4)n3)CC2)CCOCC1
6.76
14) CC(F)(F)Cc1ccc(C2CCN(S(=O)(=O)C3(C(=O)NO)CCOCC3)CC2)nc1
8.63
15) O=C(NO)C1(S(=O)(=O)N2CCC(c3ccc(CCC4CCC4)cn3)CC2)CCOCC1
9.38
16) O=C(NO)C1(S(=O)(=O)N2CCC(c3ccc(COCC4CC4)cn3)CC2)CCOCC1
8.94
17) CCC(CC)(C(=O)NO)S(=O)(=O)N1CCC(c2ccc(OCC3CC3)cn2)CC1
8.47
18) O=C(NO)C1(S(=O)(=O)N2CCC(c3ccc(C#CCCO)cn3)CC2)CCOCC1
9.11
19) CCc1nc(-c2ccc(N3CCN(S(=O)(=O)C4(C(=O)NO)CCOCC4)CC3)cc2)no1
10.10
20) CCCC(=O)c1ccc(C2CCN(S(=O)(=O)C3(C(=O)NO)CCOCC3)CC2)nc1
8.58
21) O=C(CCCCC1CCN(S(=O)(=O)C2(C(=O)NO)CCOCC2)CC1)N1CCCCC1
6.63
22) COCCC(CCOC)(C(=O)NO)S(=O)(=O)N1CCC(c2ccc(CCC(F)(F)C(F)(F)F)cn2)CC1
8.54
23) CC(F)(F)COc1ccc(C2CCN(S(=O)(=O)C3(C(=O)NO)CCOCC3)CC2)nc1
8.77
24) Cc1cnn(-c2ccc(C3CCN(S(=O)(=O)C4(C(=O)NO)CCOCC4)CC3)nc2)c1
8.33
25) COCCOc1ccc(C2CCN(S(=O)(=O)C3(C(=O)NO)CCOCC3)CC2)nc1
8.35
26) CC(C)CN(C)C(=O)/C=C/C=C/C1CCN(S(=O)(=O)C2(C(=O)NO)CCOCC2)CC1
5.96
27) COC(=O)CCCCC1CCN(S(=O)(=O)C2(C(=O)NO)CCOCC2)CC1
8.42
28) O=C(/C=C/C=C/C1CCN(S(=O)(=O)C2(C(=O)NO)CCOCC2)CC1)N1Cc2ccccc2C1
5.97
